Sourced from PubChem BioAssay AID1851

# test target: Cytochrome P450 2D6 (Homo sapiens) (UniProt P10635)
# Sequence (P10635 whole entry, looked up): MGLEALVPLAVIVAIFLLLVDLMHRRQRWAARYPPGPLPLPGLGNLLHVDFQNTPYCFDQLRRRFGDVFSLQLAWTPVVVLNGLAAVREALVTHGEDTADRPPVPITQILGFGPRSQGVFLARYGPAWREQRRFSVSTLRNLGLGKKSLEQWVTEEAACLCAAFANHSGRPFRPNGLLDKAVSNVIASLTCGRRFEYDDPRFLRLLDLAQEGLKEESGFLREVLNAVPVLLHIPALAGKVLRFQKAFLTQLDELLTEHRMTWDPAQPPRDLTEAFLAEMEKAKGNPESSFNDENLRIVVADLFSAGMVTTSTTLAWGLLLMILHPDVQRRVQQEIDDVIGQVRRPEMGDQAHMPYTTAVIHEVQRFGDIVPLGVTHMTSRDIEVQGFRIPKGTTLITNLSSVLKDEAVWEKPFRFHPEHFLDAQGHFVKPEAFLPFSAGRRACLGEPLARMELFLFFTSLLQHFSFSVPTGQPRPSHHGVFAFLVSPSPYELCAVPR
# protocol notes: Cytochrome panel assay with activity outcomes; on activity, negative = inhibition: on the % scale 0 is the no-effect control and ±100 the full control effect
# study conditions: recombinant CYP, pro-luciferin dealkylation, luminescence, p450-cyp2d6; series mostly up to 57.1 µM
Hit rate of the full screen: of about 16,000 compounds, about 2,600 (16%) were called active. Inconclusive results (about 20%) are left out. Only a sample is shown.
readout type: activity, negative = inhibition

Example entries and their recorded answers appear below.
chemical structure | activity, negative = inhibition
C[C@H]1C[C@H]2[C@H]3CCC4=CC(=O)C=C[C@@]4(C)[C@]3(F)[C@H](O)C[C@]2(C)[C@@]1(O)C(=O)COP(=O)(O)O | 2.95% [at 11.4 µM] (inactive)
O=C(O)/C(=C\c1ccccc1)c1ccccc1 | -2.29% [at 11.4 µM] (inactive)
C=CC[C@@H]1C=C[C@H](O/N=C(\C)CCN2CCc3nc(-c4ccccc4)c(-c4ccccc4)cc3C2)[C@H](CO)O1 | 0.49% [at 11.4 µM] (inactive)
C[C@H]1COC(=O)[C@H]2CCCN2C(=O)[C@@H](C)COC(=O)[C@H](Cc2ccccc2)NC1=O | 2.57% [at 11.4 µM] (inactive)
C[N@+]1(CCC(=O)c2ccccc2)CC[C@H]2CC[C@H](C2)C1 | 10.5% [at 11.4 µM] (inactive)
Cc1cc2nc([C@H](C)C(=O)c3ccc(Cl)cc3)c(=O)[nH]c2cc1C | -4.99% [at 11.4 µM] (inactive)

// below: activity, negative = inhibition requested for another compound
Prompt: Given the entry "CCOC(=O)N/N=C1/C[C@@H](O)[C@@H](O)[C@@H]2[C@@H]3C(=O)N(CC)C(=O)[C@H]3CC[C@@H]12" , report its measured activity, negative = inhibition.
Response: 7.29% [at 11.4 µM] (inactive)

----------
# test target: Cytochrome P450 2D6 (Homo sapiens) (UniProt P10635)
# protocol notes: Cytochrome panel assay with activity outcomes
# study conditions: recombinant CYP, pro-luciferin dealkylation, luminescence, p450-cyp2d6; series mostly up to 57.1 µM
The campaign covered roughly 16,000 compounds. About 2,600 (16%) were called active. Inconclusive results (about 20%) are left out. Calls follow the shape of the dose curve; as a rule, active = well fitted curve in the direction sought with a large enough effect; inconclusive = small, poorly fitted or top-dose-only effect, or effect the other way; inactive = no such curve, though single readings can be large or run the other way. The list is a sample of the results.
Can you answer with just one of these options? TRUE for active, FALSE for inactive

molecule | discrete label
C#CCSc1nncn1C(=O)/C=C/c1ccccc1 | FALSE
O=C(CSc1nnc(Cn2nnc3ccccc32)o1)Nc1cccc(Cl)c1 | TRUE

Prompt: Could you please tell me the result logged for "CCOc1ccccc1Oc1c(C)oc2cc(OC(=O)c3ccco3)ccc2c1=O" in this assay?
Response: FALSE

Prompt: Could you please tell me the result logged for CC12CS(=O)(=O)CC1SC(=S)N2c1ccccn1 (stereo unspecified) in this assay?
Response: FALSE

Prompt: Could you please tell me the result logged for "Cc1cc2c(cc1C)-c1nnc(-c3ccc4ccccc4n3)n1C(C)(C)C2" in this assay?
Response: FALSE

Prompt: Could you please tell me the result logged for "CCOc1ccccc1Oc1coc2cc(OC)ccc2c1=O" in this assay?
Response: TRUE

----------
# test target: Cytochrome P450 2D6 (Homo sapiens)
# protocol notes: Cytochrome panel assay with activity outcomes
# study conditions: recombinant CYP, pro-luciferin dealkylation, luminescence, p450-cyp2d6; series mostly up to 57.1 µM
Screen size: about 16,000 compounds; about 2,600 (16%) were called active. About 20% were inconclusive and are not listed. Calls follow the shape of the dose curve; as a rule, active = well fitted curve in the direction sought with a large enough effect; inconclusive = small, poorly fitted or top-dose-only effect, or effect the other way; inactive = no such curve, though single readings can be large or run the other way. Not all results are given here.
Can you answer with just one of these options? yes (active), no (inactive)

Past entries and their recorded results:
compound | discrete label
O=c1oc2ccccc2cc1-c1csc(NN=C2CCCCC2)n1 | yes
Cc1c(O)c(=O)n(-c2ccccc2)n1C | no
Cc1cc(NC(=S)NC(=O)CC(C)C)ccc1Br | no
Cc1cccc(-c2noc(-c3cc4ccccc4oc3=O)n2)c1 | no
Cc1cc(NC(=S)Nc2ccccc2)ccc1Br | yes
Cc1ccc(/C=N\NC(=O)c2cc(OCC(F)(F)F)ccc2OCC(F)(F)F)cc1 | no
Cc1nn(-c2ccccc2)c(N2CCCCC2)c1/C=N/O | no
CCOC(=O)C1=C(N)n2c(s/c(=C\c3ccco3)c2=O)=C(C(=O)OCC)C1c1ccco1 (configuration not stated) | no
CCSc1nc2nc(C)cc(C)n2n1 | no
O=c1c(-c2ccc(F)cc2)nc2cnc(Nc3ccccc3)nc2n1Cc1cccs1 | no

Prompt: Could you please tell me the result logged for "O=C(Nc1ccccc1)N1CCSc2cc(Cl)ccc21" in this assay?
Response: no

Prompt: Could you please tell me the result logged for "O=C(N/C(=C/c1ccco1)C(=O)N1CCCCCC1)c1cccs1" in this assay?
Response: no

----------
# test target: Cytochrome P450 2D6 (Homo sapiens) (UniProt P10635)
# protocol notes: Cytochrome panel assay with activity outcomes
# study conditions: recombinant CYP, pro-luciferin dealkylation, luminescence, p450-cyp2d6; series mostly up to 57.1 µM
In all, about 16,000 compounds went through this assay and about 2,600 (16%) were called active. Another 20% or so got no clear call; they are omitted. Only a sample is shown.
readout type: outcome

Example entries and their recorded answers appear below.
chemical structure | readout value
Cc1ccnc2nc(C(=O)OCC(=O)Nc3ccc4c(c3)OC(F)(F)O4)nn12 | inactive
C#C[C@@]1(O)CC[C@@H]2[C@@H]3CCC4=CC(=O)CC[C@@H]4[C@H]3CC[C@]21CC | inactive
O=C(CSc1nc2nc(-c3cccs3)cc(C(F)(F)F)c2c(=O)[nH]1)NCc1ccco1 | inactive
O=C1CC[C@H](N2C(=O)c3ccccc3C2=O)C(=O)N1 | inactive

// below: outcome requested for another compound
Prompt: Given the entry "CCOC(=O)/C(C(N)=NCCCO)=C(/O)c1ccccc1" , report its measured outcome.
Response: inactive

----------
# test target: Cytochrome P450 2D6 (Homo sapiens) (UniProt P10635)
# protocol notes: Cytochrome panel assay with activity outcomes
# study conditions: recombinant CYP, pro-luciferin dealkylation, luminescence, p450-cyp2d6; series mostly up to 57.1 µM
In all, about 16,000 compounds went through this assay and about 2,600 (16%) were called active. Another 20% or so got no clear call; they are omitted. The call rests on the fitted dose curve; in most records, active means well fitted curve in the direction sought with a large enough effect; inconclusive means small, poorly fitted or top-dose-only effect, or effect the other way; inactive means no such curve, though single readings can be large or run the other way. A selection follows.
Can you answer with just one of these options? 1.0 for active, 0.0 for inactive

compound | discrete label
O=C(O)c1cc2cc(OCc3ccccc3)ccc2[nH]1 | 0.0
CCc1nnc(NC(=O)c2c(C)nn(-c3ccccc3)c2Cl)s1 | 0.0
CC(C)C12CN3CC(C(C)C)(CN(C1)C3c1ccco1)C2=O (configuration not stated) | 0.0

Prompt: Could you please tell me the result logged for "FC(F)(F)c1ccccc1-c1ccc2ncnc(NCc3cccs3)c2c1" in this assay?
Response: 1.0

----------
# test target: Cytochrome P450 2D6 (Homo sapiens) (UniProt P10635)
# protocol notes: Cytochrome panel assay with activity outcomes
# study conditions: recombinant CYP, pro-luciferin dealkylation, luminescence, p450-cyp2d6; series mostly up to 57.1 µM
Hit rate of the full screen: of about 16,000 compounds, about 2,600 (16%) were called active. Inconclusive results (about 20%) are left out. Not all results are given here.
readout type: AC50

Example entries and their recorded answers appear below.
compound | test target | readout type | readout value
CCCC1S/C(=N/N=C/c2ccc(OC)cc2)N(Cc2ccc(OC)cc2)C1=O (stereo not given) | Cytochrome P450 2D6 (Homo sapiens) (UniProt P10635) | AC50 | inactive
COc1ccc(NC(=O)N2CC3(CCN(S(C)(=O)=O)CC3)C2)cc1 | Cytochrome P450 2D6 (Homo sapiens) (UniProt P10635) | AC50 | inactive
CC(=O)Nc1ccc(-c2cc(-c3ccc(NC(C)=O)cc3)nc(-c3ccccc3)n2)cc1 | Cytochrome P450 2D6 (Homo sapiens) (UniProt P10635) | AC50 | inactive
N#CCCn1c(=O)c(-c2cc(F)cc(F)c2)nc2cnc(OCc3ccccc3)nc21 | Cytochrome P450 2D6 (Homo sapiens) (UniProt P10635) | AC50 | inactive

// below: AC50 requested for another compound
Prompt: Given the entry "CC(C)CN1CCC2(CC1)CCN(C(=O)c1ccncc1)CC2" , report its measured AC50.
Response: 3.98 µM (active)

----------
# test target: Cytochrome P450 2D6 (Homo sapiens)
# protocol notes: Cytochrome panel assay with activity outcomes
# study conditions: recombinant CYP, pro-luciferin dealkylation, luminescence, p450-cyp2d6; series mostly up to 57.1 µM
Hit rate of the full screen: of about 16,000 compounds, about 2,600 (16%) were called active. Roughly 20% stayed inconclusive and do not appear here. The call rests on the fitted dose curve; in most records, active means well fitted curve in the direction sought with a large enough effect; inconclusive means small, poorly fitted or top-dose-only effect, or effect the other way; inactive means no such curve, though single readings can be large or run the other way. Only a sample is shown.
Can you answer with just one of these options? 1 (yes) for active, 0 (no) for inactive

Past entries and their recorded results:
chemical structure | test target | discrete label
CN(Cc1ccco1)c1ncncc1-c1ccccc1Cl | Cytochrome P450 2D6 (Homo sapiens) | 1 (yes)
Cc1cc2ccccc2c[n+]1CC(O)C[n+]1cc2ccccc2cc1C | Cytochrome P450 2D6 (Homo sapiens) | 1 (yes)
COc1ccc(C(=O)NNC(=O)CSc2nnc(COc3ccc4ccccc4c3)n2C)cc1 | Cytochrome P450 2D6 (Homo sapiens) | 0 (no)
COC(Cn1c(C)c(C(C)=O)c(C(C)=O)c1C)OC | Cytochrome P450 2D6 (Homo sapiens) | 0 (no)
CCOc1ccc(NC(=O)N2CCC(C(N)=O)(N3CCCCC3)CC2)cc1 | Cytochrome P450 2D6 (Homo sapiens) | 0 (no)

Prompt: Could you please tell me the result logged for "CN(Cc1ccco1)c1ncncc1-c1cccnc1" in this assay?
Response: 0 (no)

Prompt: Could you please tell me the result logged for "O=C(O)Cc1cc(I)c(Oc2ccc(O)c(I)c2)c(I)c1" in this assay?
Response: 0 (no)

Prompt: Could you please tell me the result logged for "O=C(CN1C(=O)NC2(CCCCCC2)C1=O)N1CCN(S(=O)(=O)c2ccc(Cl)cc2)CC1" in this assay?
Response: 0 (no)

Prompt: Could you please tell me the result logged for "COc1cccc(-c2cncnc2N(C)Cc2ccco2)c1" in this assay?
Response: 1 (yes)

Prompt: Could you please tell me the result logged for "N#C/C(=C\c1ccc(N2CCCC2)c([N+](=O)[O-])c1)c1nc2ccccc2[nH]1" in this assay?
Response: 1 (yes)

Prompt: Could you please tell me the result logged for "CCCCC[C@H](O)c1cccc(OCc2ccc3ccccc3n2)c1" in this assay?
Response: 0 (no)

Prompt: Could you please tell me the result logged for "CCC(C)(C)NC(=O)c1ccc2c(c1)N(CC(=O)OC)C(=O)C(C)(C)O2" in this assay?
Response: 0 (no)

Prompt: Could you please tell me the result logged for "N#C/C(=C/c1ccc(N2CCCC2)c([N+](=O)[O-])c1)c1nc2ccccc2[nH]1" in this assay?
Response: 1 (yes)

Prompt: Could you please tell me the result logged for "COc1ccc(C(OCCN2CCC[C@@H](C(=O)O)C2)(c2ccc(OC)cc2)c2ccc(OC)cc2)cc1" in this assay?
Response: 0 (no)

Prompt: Could you please tell me the result logged for "N#CCCn1c(=O)c(-c2ccc(F)cc2)nc2cnc(Oc3cccc(Cl)c3)nc21" in this assay?
Response: 0 (no)

Prompt: Could you please tell me the result logged for "COCCn1c(=O)c(C)nc2cnc(Oc3cccc(Cl)c3)nc21" in this assay?
Response: 0 (no)

Prompt: Could you please tell me the result logged for "O=C(CCc1ccccc1)NNC(=O)C1CCCCC1" in this assay?
Response: 0 (no)

Prompt: Could you please tell me the result logged for "Cc1ccc(NC(=O)CN2C(=O)S/C(=C\c3cccn3C)C2=O)cc1" in this assay?
Response: 0 (no)

Prompt: Could you please tell me the result logged for "N#CCCn1c(=O)c(-c2ccc(F)cc2)nc2cnc(OCc3ccccc3)nc21" in this assay?
Response: 0 (no)

Prompt: Could you please tell me the result logged for "CC(=O)c1ccc(S(=O)(=O)NC(=O)NC2CCCCC2)cc1" in this assay?
Response: 0 (no)

Prompt: Could you please tell me the result logged for "O=C(O/N=C\c1ccc(N2CCCCC2)c([N+](=O)[O-])c1)c1c(F)cccc1F" in this assay?
Response: 0 (no)

Prompt: Could you please tell me the result logged for "FC(F)(F)c1cc(C(F)(F)F)c2ccc(N/N=C/c3cccc(Cl)c3)nc2n1" in this assay?
Response: 0 (no)
